Test: qHTS of pediatric cancer cell lines to identify multiple opportunities for drug repurposing: Primary screen for Rh41 cells (AID 1347108); also: nearly all actives have a fitted effect of over 70% in size
Conditions: Rh41 rhabdomyosarcoma viability, CellTiter-Glo luminescence, 48 h; series mostly up to 46 µM
Inconclusive results are not listed. Activity calls are given as the source filed them. Calls follow the shape of the dose curve; as a rule, active = well fitted cell-killing curve with a large enough effect; inconclusive = small, poorly fitted or top-dose-only effect; inactive = no such curve, though single readings can be large or run the other way.
Form entry, call: pick from TRUE (active), FALSE (inactive)

Example entries begin here.
>  <compound>
COc1c(C)c2c(c(O)c1CC=C(C)CCC(=O)O)C(=O)OC2

>  <class>
FALSE

$$$$
>  <compound>
COc1c(C)c2c(c(O)c1CC=C(C)CCC(=O)OCCN1CCOCC1)C(=O)OC2

>  <class>
FALSE

$$$$
>  <compound>
CC(C)n1c(C=C[C@H](O)C[C@H](O)CC(=O)O)c(-c2ccc(F)cc2)c2ccccc21

>  <class>
FALSE

$$$$
>  <compound>
NC[C@H]1O[C@H](O[C@@H]2[C@@H](O)[C@@H](O[C@H]3O[C@H](CO)[C@@H](O)[C@H](N)[C@@H]3O)[C@H](N)C[C@@H]2N)[C@H](O)[C@@H](O)[C@H]1O

>  <class>
FALSE

$$$$
>  <compound>
Cc1nn(Cc2ccccc2Cl)c(C)c1CN(C)CC(O)COc1ccc(Cl)cc1 (configuration not stated)

>  <class>
TRUE

$$$$

## Task Tell me the recorded outcome of this test for `Cn1c(=O)c(-c2c(Cl)cccc2Cl)cc2cnc(Nc3cccc(C(=O)O)c3)nc21` .
## Result FALSE

## Task Tell me the recorded outcome of this test for `Cc1cn([C@@H]2C[C@@H](O)[C@H](CO)O2)c(=O)[nH]c1=O` .
## Result FALSE

----------
Test: Quantitative High-Throughput drug screen in 47 multiple myeloma cell lines against the NCATS MIPE library collection: EJM_DSMZ cell viability assay (AID 1918926; also: nearly all actives have a fitted effect of over 30% in size)
Conditions: EJM myeloma cell viability, CellTiter-Glo ATP, 48 h; series mostly up to 45.8 µM
Results filed as inconclusive are left out. Active and inactive are the calls of the source. Calls come from the whole dose curve; as a rule, active = well fitted cell-killing curve with a large enough effect; inconclusive = small, poorly fitted or top-dose-only effect, or effect the other way; inactive = no such curve, though single readings can be large or run the other way.
Form entry, call: pick from 1 = active, 0 = inactive

>  <compound>
COc1ccc(Cn2ccc3ccc(C(=O)NO)cc32)cc1

>  <class>
1

$$$$
>  <compound>
COc1cc([C@H]2Oc3cc([C@H]4Oc5cc(O)cc(O)c5C(=O)[C@H]4O)ccc3O[C@H]2CO)ccc1O

>  <class>
1

$$$$
>  <compound>
CCN1C[C@H](C)n2c(c(O)c3c(=O)n(Cc4ccc(F)c(Cl)c4)nc(C(=O)NC)c32)C1=O

>  <class>
0

$$$$
>  <compound>
O=C1CN2Cc3c(ccc(Cl)c3Cl)N=C2N1

>  <class>
0

$$$$
>  <compound>
Cc1cc2c(cc1C1(c3ccc(C(=O)O)cn3)CC1)C(C)(C)CCC2(C)C

>  <class>
0

$$$$
>  <compound>
CN(C)CC[C@H](CSc1ccccc1)Nc1ccc(S(=O)(=O)NC(=O)c2ccc(N3CCN(Cc4ccccc4-c4ccc(Cl)cc4)CC3)cc2)cc1[N+](=O)[O-]

>  <class>
1

$$$$
>  <compound>
CC(C)(C)c1nc(-c2cccc(NS(=O)(=O)c3c(F)cccc3F)c2F)c(-c2ccnc(N)n2)s1

>  <class>
1

$$$$
>  <compound>
O=C(O)C1=CO[C@@H](O[C@@H]2O[C@H](CO)[C@H](O)[C@H](O)[C@H]2O)[C@@H]2C(CO)=CC[C@H]12

>  <class>
1

$$$$
>  <compound>
Cc1nc2c([nH]1)CCN(C(=O)c1ccc(NC(=O)c3ccccc3-c3ccccc3)cc1)c1ccccc1-2

>  <class>
0

$$$$
>  <compound>
CC(C)(O)CC(=O)NCCn1ccc2ncnc(Nc3ccc(Oc4cccc(C(F)(F)F)c4)c(Cl)c3)c21

>  <class>
1

$$$$

## Task Tell me the recorded outcome of this test for `Cc1cc(OCCCS(C)(=O)=O)cc(C)c1-c1cccc(COc2ccc3c(c2)OC[C@H]3CC(=O)O)c1` .
## Result 0

## Task Tell me the recorded outcome of this test for `O=C(c1ccc(C=Cc2n[nH]c3ccccc23)cc1)N1CCNCC1` .
## Result 1

## Task Tell me the recorded outcome of this test for `NC(N)=Nc1nc(CSCCC(N)=NS(N)(=O)=O)cs1` .
## Result 1
